procedure_summary: Open-label absolute bioavailability / pharmacokinetic study of intranasal ketamine in healthy volunteers
Type: in vivo, human
measurement_parameters: human, plasma, other: intranasal; Dose 10 mg, hydro-alcoholic composition; minimum-maximum
Assignment: determine reported Cmax for the given molecules.

Cmax reported for this molecule CN[C@@]1(c2ccccc2Cl)CCCCC1=O [(R)-Ketamine] : 26.5 to 155 ng/mL

Cmax reported for this molecule CN[C@]1(c2ccccc2Cl)CCCCC1=O [(S)-Ketamine] : 21.4 to 125 ng/mL

----------
procedure_summary: Open-label absolute bioavailability / pharmacokinetic study of intranasal ketamine in healthy volunteers
Assay type: in vivo, human
measurement_parameters: human, plasma, inhaled or intranasal; intranasal, effective amount 10 mg
metric: Tmax

Tmax reported for this molecule CN[C@]1(c2ccccc2Cl)CCCCC1=O [(S)-Ketamine] : 5 to 19.8 min

----------
procedure_summary: Open-label absolute bioavailability / pharmacokinetic study of intranasal ketamine in healthy volunteers
Assay type: in vivo, human
measurement_parameters: human, plasma, other: intranasal; Dose 40 mg, hydro-alcoholic composition; minimum-maximum
metric: Cmax

Cmax reported for this compound CNC1(c2ccccc2Cl)CCCCC1=O (racemic) [(RS)-Ketamine] : 94.7 to 367 ng/mL

----------
procedure_summary: Open-label absolute bioavailability / pharmacokinetic study of intranasal ketamine in healthy volunteers
Format: in vivo, human
measurement_parameters: human, plasma, inhaled or intranasal; intranasal, effective amount 20 mg
Assignment: determine reported Tmax for the given compounds.

Tmax reported for this compound CNC1(c2ccccc2Cl)CCCCC1=O (racemic) [(RS)-Ketamine] : 4.98 to 30 min

Tmax reported for this compound CN[C@]1(c2ccccc2Cl)CCCCC1=O [(S)-Ketamine] : 10 to 30 min

----------
procedure_summary: Open-label absolute bioavailability / pharmacokinetic study of intranasal ketamine in healthy volunteers
Assay type: in vivo, human
measurement_parameters: human, plasma, inhaled or intranasal; intranasal, effective amount 40 milligrams
metric: Tmax

Tmax reported for this molecule CNC1(c2ccccc2Cl)CCCCC1=O (racemic) [(RS)-Ketamine] : 10 to 30 min

----------
Assignment: determine reported Tmax for the given compounds.
procedure_summary: Open-label absolute bioavailability / pharmacokinetic study of intranasal ketamine in healthy volunteers
Format: in vivo, human
measurement_parameters: human, plasma, other: intranasal; Dose 20 mg, hydro-alcoholic composition; minimum-maximum

Tmax reported for this compound CN[C@@]1(c2ccccc2Cl)CCCCC1=O [(R)-Ketamine] : 10 to 30 min

Tmax reported for this compound CN[C@]1(c2ccccc2Cl)CCCCC1=O [(S)-Ketamine] : 10 to 30 min

Tmax reported for this compound CNC1(c2ccccc2Cl)CCCCC1=O (racemic) [(RS)-Ketamine] : 4.98 to 30 min

----------
procedure_summary: Open-label absolute bioavailability / pharmacokinetic study of intranasal ketamine in healthy volunteers
Assay type: in vivo, human
measurement_parameters: human, plasma, inhaled or intranasal, 10 mg, AUC (0-1 hr), intranasal, effective amount 10 mg
metric: AUC(0-1 hr)

AUC(0-1 hr) reported for this molecule CN[C@]1(c2ccccc2Cl)CCCCC1=O [(S)-Ketamine] : 0.0128 to 0.0558 µg·h/mL
